Test system: HL60 (leukemia)
Experiment: In vitro cytotoxic activity (MTT) assay, HL60
Format: cell-based
Details: Homo sapiens, HL-60, 96 hours exposure, read-out: Cytotoxicity activity IC50 (50% inhibition of cell proliferation)
readoutName: pIC50
# reply with the number alone; pIC50 is -log10 of concentration in mol/L

I would be grateful if you could share the reported pIC50 for O=C(O)c1cc2c3cnccc3nc(Nc3cccc(Cl)c3)n2n1 .
5.29

###

System: MIAPaCa-2 (pancreas)
Assay: In vitro cytotoxic activity (MTT) assay, MIAPaCa-2
Type: cell-based
Details: Homo sapiens, MIA PaCa-2, 96 hours exposure, read-out: Cytotoxicity activity IC50 (50% inhibition of cell proliferation)
readoutName: IC50 (µM)
Reply with just the number (in µM).

I would be grateful if you could share the reported IC50 for O=C(O)c1cc2c3cnccc3nc(Nc3cccc(Cl)c3)n2n1 .
1.7

###

System: HCT116 (colon)
Test: In vitro cytotoxic activity (MTT) assay, HCT116
Format: cell-based
Conditions: Homo sapiens, HCT-116, 96 hours exposure, read-out: Cytotoxicity activity IC50 (50% inhibition of cell proliferation)
readoutName: IC50 (µM)
Reply with just the number (in µM).

I would be grateful if you could share the reported IC50 for O=C(O)c1cc2c3cnccc3nc(Nc3cccc(Cl)c3)n2n1 .
3.1
